Target: GDP-KRAS G12D (Homo sapiens, UniProt P01116, G12D)
Sequence (P01116 1-169 isoform P01116-2 G12D): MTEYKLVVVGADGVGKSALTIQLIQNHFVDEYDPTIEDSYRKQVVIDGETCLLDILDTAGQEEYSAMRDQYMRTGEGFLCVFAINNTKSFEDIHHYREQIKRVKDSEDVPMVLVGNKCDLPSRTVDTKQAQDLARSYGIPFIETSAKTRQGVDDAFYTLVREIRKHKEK
Test: biochemical
Kindly supply the reported log10 of IC50 values for the records listed here.
In our notation, the value equals log10 of IC50 in nM.

# query: log10 of IC50 of entry C#Cc1c(F)ccc2cc(N)cc(-c3nc4c5c(nc(OC[C@@H]6CCN6CC(F)F)nc5c3F)N3CCCOC[C@H]3CO4)c12 [Compound 23]
1.48

For the molecule shown here, N#Cc1c(N)sc2c(F)ccc(-c3c(F)c4c5c(nc(OC[C@@]67CCCN6C[C@H](F)C7)nc5c3F)N3CCCOC[C@H]3CO4)c12 (single isomer, unassigned) [Compound 163B] , give the reported log10 of IC50.
-0.06

Which log10 of IC50 is reported for this molecule? C#Cc1c(F)ccc2cc(N)cc(-c3nc4c5c(nc(OC[C@@]67CCCN6C[C@H](F)C7)nc5c3F)N3CCCOCC3N4)c12 (stereo partly drawn) [Compound 113]
0.66

What value of log10 of IC50 has been recorded for this entry: C#Cc1c(F)ccc2cc(N)cc(-c3nc4c5c(nc(OC[C@@]67CCCN6C[C@H](F)C7)nc5n5c(n4C)=CC=CCC5)c3F)c12 [Compound 112]
1.52

Reported log10 of IC50 for CCc1c(F)ccc2cc(N)cc(-c3nc4c5c(nc(OC[C@@]67CCCN6C[C@H](F)C7)nc5c3F)N3[C@@H](C)CCOC[C@H]3N4C)c12 [Compound 127] : what is it?
0.59

Consider the molecule shown here: C#Cc1c(F)ccc2cc(N)cc(-c3nc4c5c(nc(OC[C@@]67CCCN6C[C@H](F)C7)nc5c3F)N3CCCC=C(F)C3N4C)c12 (stereo partly drawn) [Compound 80] What is its recorded log10 of IC50?
1.03

----------
Assign IC50 to each entry below.
Biological target: GppNp-KRAS G12D (Homo sapiens, UniProt P01116, G12D)
Sequence (P01116 1-169 isoform P01116-2 G12D): as above
Experiment: GTP-K-Ras and cRAF interaction assay, GppNp-KRAS G12D
Details: read-out: Biochemical assays, IC50, KRAS G12D GppNp; GppNp-loaded K-Ras G12D, cRAF RBD interaction, HTRF
State the answer as a number, implicitly in nM.

IC50 lookup needed for N#Cc1c(N)sc2c(F)ccc(-c3c(Cl)c4c5c(nc(OCC67CCCN6CC(F)C7)nc5c3F)N3CCCOCC3CO4)c12 (single isomer, unassigned) [Compound 66B] , thanks.
4.06

IC50 lookup needed for C#Cc1c(F)ccc2cc(N)cc(-c3nc4c5c(nc(OC[C@@]67CCCN6C[C@H](F)C7)nc5c3F)N3[C@@H](COCC[C@@H]3C)CO4)c12 [Compound 38A] , thanks.
51.9

Could you share which IC50 value was measured for C#Cc1c(F)ccc2cc(N)cc(-c3nc4c5c(nc(OC[C@@]67CCCN6C[C@H](F)C7)nc5c3F)N3CCC=C[C@H](F)[C@H]3N4C)c12 [Compound 108A] ?
106

Item C#Cc1c(F)ccc2cc(N)cc(-c3nc4c5c(nc(OCC67CCCN6CC(F)C7)nc5c3F)N3C(C)CCOCC3CO4)c12 (stereo not drawn) [Compound 38B] has what recorded IC50?
174

// returns reported IC50 for input C#Cc1c(F)ccc2cc(N)cc(-c3c(Cl)c4c5c(nc(OCC67CCCN6CC(F)C7)nc5c3F)N3CCCOCC3CO4)c12 (single isomer, unassigned) [Compound 11B]
233

Consider the compound shown here: C#Cc1c(F)ccc2cc(N)cc(-c3nc4c5c(nc(OCC67CC(=C)CN6CC(OC)C7)nc5c3F)N3CCCOCC3N4C)c12 (stereo not drawn) [Compound 169] What is its recorded IC50?
164

Which IC50 is listed for C#Cc1c(F)ccc2cc(N)cc(-c3nc4c5c(nc(OCC67CCCN6CC(F)C7)nc5c3F)N3CCCCCC3CO4)c12 (stereo not drawn) [Compound 27B] ?
174

Recorded IC50 of C#Cc1c(F)ccc2cc(N)cc(-c3nc4c5c(nc(OC[C@@]67CCCN6C[C@H](F)C7)nc5c3F)N3CC(C)COCC3N4C)c12 (single isomer, unassigned) [Compound 103] , please.
214

Recorded IC50 for C#Cc1c(F)ccc2cc(N)cc(-c3nc4c5c(nc(OCC67CCCN6CC(F)C7)nc5c3F)N3C(C(F)F)CCOCC3N4C)c12 (stereo not drawn) [Compound 52B] , please?
302

Measured values drawn from patent US20260200947A1 for this set.
